Substrate: C[C@H](NC(=O)CCC(=O)O)C(=O)N[C@@H](C)C(=O)N1CCC[C@H]1C(=O)N[C@@H](Cc1ccccc1)C(=O)Nc1ccc([N+](=O)[O-])cc1
Assay: Amidase activity: hydrolysis of p-nitroanilide peptide substrate
Assay type: biochemical, Bacillus subtilis
Conditions: other: 0% DMF, 0.1M Tris-HCl, 10 mM CaCl2, pH 8, 37° C.
measured.attribute: kcat
Remember to quote the unit after the number.

Solved entries (count: 3):
protein: Bacillus subtilis subtilisin E variant 3M (D60N + Q103R + N218S) (Bacillus subtilis subsp. subtilis str. 168; A256V/D166N/N324S/Q209R) (protein, each contain 275 residues; made in house; host or cells: Bacillus subtilis DB428 (vector pKWC), secreted into the medium) AQSVPYGISQIKAPALHSQGYTGSNVKVAVIDSGIDSSHPDLNVRGGASFVPSETNPYQNGSSHGTHVAGTIAALNNSIGVLGVAPSASLYAVKVLDSTGSGRYSWIINGIEWAISNNMDVINMSLGGPTGSTALKTVVDKAVSSGIVVVAAAGNEGSSGSTSTVGYPAKYPSTIAVGAVNSSNQRASFSSAGSELDVMAPGVSIQSTLPGGTYGAYSGTSMATPHVAGAAALILSKHPTWTNAQVRDRLESTATYLGNSFYYGKGLINVQAAAQ
measured.attribute: kcat
value.measured: 40 s⁻¹

protein: Bacillus subtilis subtilisin E variant 7M (D60N + Q103R + N218S + D97G + E156G + N181S + G131D) (Bacillus subtilis subsp. subtilis str. 168; … (protein) AQSVPYGISQIKAPALHSQGYTGSNVKVAVIDSGIDSSHPDLNVRGGASFVPSETNPYQNGSSHGTHVAGTIAALNNSIGVLGVAPSASLYAVKVLGSTGSGRYSWIINGIEWAISNNMDVINMSLGGPTDSTALKTVVDKAVSSGIVVVAAAGNGGSSGSTSTVGYPAKYPSTIAVGAVSSSNQRASFSSAGSELDVMAPGVSIQSTLPGGTYGAYSGTSMATPHVAGAAALILSKHPTWTNAQVRDRLESTATYLGNSFYYGKGLINVQAAAQ
measured.attribute: kcat
value.measured: 18 s⁻¹

protein: Bacillus subtilis subtilisin E variant 4M (D60N + Q103R + N218S + D97G) (Bacillus subtilis subsp. subtilis str. 168; A256V/D166N/D203G/N324S/Q209R) (protein, each contain 275 residues; made in house; host or cells: Bacillus subtilis DB428 (vector pKWC), secreted into the medium) AQSVPYGISQIKAPALHSQGYTGSNVKVAVIDSGIDSSHPDLNVRGGASFVPSETNPYQNGSSHGTHVAGTIAALNNSIGVLGVAPSASLYAVKVLGSTGSGRYSWIINGIEWAISNNMDVINMSLGGPTGSTALKTVVDKAVSSGIVVVAAAGNEGSSGSTSTVGYPAKYPSTIAVGAVNSSNQRASFSSAGSELDVMAPGVSIQSTLPGGTYGAYSGTSMATPHVAGAAALILSKHPTWTNAQVRDRLESTATYLGNSFYYGKGLINVQAAAQ
measured.attribute: kcat
value.measured: 43 s⁻¹

Please look at the following protein next.
Tell me kcat reported for Bacillus subtilis subtilisin E variant 6M (D60N + Q103R + N218S + D97G + E156G + N181S) (Bacillus subtilis subsp. subtilis str. 168; … (protein) AQSVPYGISQIKAPALHSQGYTGSNVKVAVIDSGIDSSHPDLNVRGGASFVPSETNPYQNGSSHGTHVAGTIAALNNSIGVLGVAPSASLYAVKVLGSTGSGRYSWIINGIEWAISNNMDVINMSLGGPTGSTALKTVVDKAVSSGIVVVAAAGNGGSSGSTSTVGYPAKYPSTIAVGAVSSSNQRASFSSAGSELDVMAPGVSIQSTLPGGTYGAYSGTSMATPHVAGAAALILSKHPTWTNAQVRDRLESTATYLGNSFYYGKGLINVQAAAQ
12 s⁻¹

Each recorded value in this set is attributed to patent US5316935A.
